MCC values for the compounds below.
Test: Cytotoxicity against human HEL cells assessed as alteration of normal cell morphology by microscopic analysis
Type: cell-based

record.smiles: COc1ccc(-c2nc(SC)nc(NCCCCNc3ccnc4cc(Cl)ccc34)c2C#N)cc1
MCC: 4 to 20 µM
//
record.smiles: CSc1nc(NCCCCNc2ccnc3cc(Cl)ccc23)c(C#N)c(-c2ccccc2)n1
MCC: 4 to 20 µM
//
record.smiles: COc1cc(-c2nc(SC)nc(NCCCCNc3ccnc4cc(Cl)ccc34)c2C#N)cc(OC)c1OC
MCC: 4 to 20 µM

* * *

Test system: Human alphaherpesvirus 2
Format: functional, cell-based
Conditions: Human alphaherpesvirus 2, G, HEL
pEC50: −log10 of the molar value.

compound: CCN(CC)CCCC(C)Nc1ccnc2cc(Cl)ccc12 (stereo unspecified)
system.tested: Human alphaherpesvirus 2
pEC50: < 4.70

compound: CSc1nc(OCCCNc2ccnc3cc(Cl)ccc23)c(C#N)c(-c2ccccc2)n1
system.tested: Human alphaherpesvirus 2
pEC50: < 6.10

compound: CSc1nc(NCCCCNc2ccnc3cc(Cl)ccc23)c(C#N)c(-c2ccc(C)cc2)n1
system.tested: Human alphaherpesvirus 2
pEC50: < 5.40

compound: CSc1nc(-c2ccc([N+](=O)[O-])cc2)c(C#N)c(N2CCN(c3ccnc4cc(Cl)ccc34)CC2)n1
system.tested: Human alphaherpesvirus 2
pEC50: < 4.00

compound: CSc1nc(NCCCCNc2ccnc3cc(Cl)ccc23)c(C#N)c(-c2cccc([N+](=O)[O-])c2)n1
system.tested: Human alphaherpesvirus 2
pEC50: < 5.40

compound: COc1ccc(-c2nc(SC)nc(NCCCCNc3ccnc4cc(Cl)ccc34)c2C#N)cc1
system.tested: Human alphaherpesvirus 2
pEC50: < 6.10

compound: N#Cc1c(NCCCCNc2ccnc3cc(Cl)ccc23)nc(N2CCOCC2)nc1-c1ccccc1
system.tested: Human alphaherpesvirus 2
pEC50: < 5.40

compound: CSc1nc(NCCCCNc2ccnc3cc(Cl)ccc23)c(C#N)c(-c2ccccc2)n1
system.tested: Human alphaherpesvirus 2
pEC50: < 6.10

compound: COc1cc(-c2nc(SC)nc(NCCCCNc3ccnc4cc(Cl)ccc34)c2C#N)cc(OC)c1OC
system.tested: Human alphaherpesvirus 2
pEC50: < 6.10

compound: Nc1nc2c(ncn2COCCO)c(=O)[nH]1
system.tested: Human alphaherpesvirus 2
pEC50: 7.00

compound: CSc1nc(NCCCNc2ccnc3cc(Cl)ccc23)c(C#N)c(-c2ccccc2)n1
system.tested: Human alphaherpesvirus 2
pEC50: < 5.40

Hello, the source for this data is ChEMBL document CHEMBL4000146, in case you need it.
